// values below are reported %Inh
system: CSF1R; conditions: concentration: 1 μM, replicates: in singlicate; n = 1;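 also: KINOMEscan kinase panel screen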
Give the number first and the unit second.

[
  {
    "compound": "Cc1cccc(Nc2nc(NCCN)ncc2C(N)=O)c1",
    "%Inh": "88%"
  }
]

Qu. What does the data say about its %Inh? Entry: `COc1ccc(C2=C(Nc3cccc(O)c3)C(=O)NC2=O)cc1`
Ans. 0%

Qu. Now the same for `COc1cccc(-c2nc(-c3ccccc3)[nH]c2-c2ccncc2)c1`
Ans. 2%

Qu. Now the same for `CN(c1ccc2c(c1)nc(NCc1ccccc1)n2C)c1ccnc(Nc2ccc(CS(C)(=O)=O)cc2)n1.Cl`
Ans. 100%

Qu. Now the same for `Nc1ncc(-c2cn[nH]c2)c2scc(-c3ccc4c(c3)CCN4C(=O)Cc3ccccc3)c12`
Ans. 99.9%

Qu. Now the same for `Nc1ncnc2scc(-c3ccc(NC(=O)Cc4cc(F)ccc4F)cc3)c12.O=C(O)C(F)(F)F`
Ans. 100%

Qu. Now the same for CC(C)NCC(Cc1ccccc1)NC(=O)c1cc(Br)c(-c2ccnc3[nH]ccc23)s1.Cl.Cl (stereo not shown)
Ans. 46%

Qu. Now the same for `O=C(Nc1n[nH]c2nc(-c3ccccc3O)ccc12)C1CC1`
Ans. 0%

Qu. Now the same for `Cc1ccc(NC(=O)c2ccc(Cl)c(Cl)c2)cc1-c1ccc(C(=O)Nc2ccncc2)cc1`
Ans. 99.9%

Qu. Now the same for `COc1ccc(C)c(Nc2ccnc(Nc3ccc(-c4cnc[nH]4)cc3)n2)c1.Cl`
Ans. 67%
